biological target: human ether-à-go-go-related gene (hERG) potassium channel (human); assay: primary screen, population patch clamp on CHO cells stably expressing hERG; higher = less effect of the substance;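 note: peak tail current of the secondary pulse compared with the same well before compound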
Sequence (Q12809 whole entry, looked up): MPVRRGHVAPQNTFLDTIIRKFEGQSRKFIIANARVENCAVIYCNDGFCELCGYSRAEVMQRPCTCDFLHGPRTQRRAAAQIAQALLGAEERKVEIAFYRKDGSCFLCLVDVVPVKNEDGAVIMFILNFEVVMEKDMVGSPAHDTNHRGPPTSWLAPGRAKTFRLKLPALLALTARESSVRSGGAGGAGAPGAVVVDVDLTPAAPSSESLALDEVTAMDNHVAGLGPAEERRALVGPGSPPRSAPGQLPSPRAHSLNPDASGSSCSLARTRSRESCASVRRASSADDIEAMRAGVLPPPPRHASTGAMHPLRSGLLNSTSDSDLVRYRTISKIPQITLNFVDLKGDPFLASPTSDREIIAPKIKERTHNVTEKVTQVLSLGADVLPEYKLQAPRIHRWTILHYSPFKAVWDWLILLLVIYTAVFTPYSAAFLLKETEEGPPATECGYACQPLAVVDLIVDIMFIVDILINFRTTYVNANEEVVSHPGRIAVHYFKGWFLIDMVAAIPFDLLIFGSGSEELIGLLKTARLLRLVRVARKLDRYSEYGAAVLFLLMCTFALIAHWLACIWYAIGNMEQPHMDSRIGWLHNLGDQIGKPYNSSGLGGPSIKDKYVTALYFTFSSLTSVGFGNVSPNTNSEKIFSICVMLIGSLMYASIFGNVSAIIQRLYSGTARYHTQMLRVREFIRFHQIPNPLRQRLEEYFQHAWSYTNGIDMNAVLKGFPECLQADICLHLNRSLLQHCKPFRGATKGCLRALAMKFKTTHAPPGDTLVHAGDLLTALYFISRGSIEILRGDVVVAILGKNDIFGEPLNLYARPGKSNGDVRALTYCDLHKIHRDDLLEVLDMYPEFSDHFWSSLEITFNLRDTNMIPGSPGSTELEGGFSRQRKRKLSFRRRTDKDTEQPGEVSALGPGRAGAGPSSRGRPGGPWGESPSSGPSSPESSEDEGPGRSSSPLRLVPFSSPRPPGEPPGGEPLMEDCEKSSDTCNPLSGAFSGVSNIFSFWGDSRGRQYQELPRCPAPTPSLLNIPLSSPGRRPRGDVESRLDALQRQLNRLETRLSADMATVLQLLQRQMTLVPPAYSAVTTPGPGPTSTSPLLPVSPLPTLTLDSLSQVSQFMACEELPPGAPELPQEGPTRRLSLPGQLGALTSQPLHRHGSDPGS
Hit rate of the full screen: of about 310,000 compounds, about 14,000 (4.5%) showed an effect of 50% or more. The effect is printed as a negative number. The list comes from a sample in which strong results are over-represented; it also holds close analogues and randomly drawn compounds.
assay metric: hERG current change (%, negative = inhibition) at 10uM (%)
Express it in %; write the number only.

*Q* Which value of hERG current change (%, negative = inhibition) at 10uM has been reported for `COc1ccc(CNCCc2ccc(Cl)cc2)cc1OCc1ccccc1` in the records?
*A* -75.6

*Q* Which value of hERG current change (%, negative = inhibition) at 10uM has been reported for `Cc1cccc(CCN2C(N(C)C)=NC[C@@H]2CC(C)C)c1` in the records?
*A* -18.1

Values from paper PMC4336329
